Value source: the nanobody polyreactivity screen of Harvey et al. (2022)

protocol-description: yeast display, Sf9 membrane polyspecificity reagent, FACS + sequencing; frameworks hold sequencing errors

sequence-string: QVQLVESGGGLVQAGGSIRFSCAASGRIFAHYAMGWYRPAPGKERELVAAISSSGTRTYYADSVKGRFTISRDNAKNTVYLQMNSLKPEDTAVFYCAKDSYHTVWGGYWGQGTQVTVSS
polyreactivity (PSR sort gate): high polyreactivity
//
sequence-string: QVQLVESGGGLVQAGGSLRFSCAASGRIFRYNAMGWYRQAPGKARELVAAISRSGGSTYYADSVKGRFTISRDNAKNTVYLQMISLKPEDTAVYYCAVGSPYGGRAPCVRGGDYWGQGTQVTVSS
polyreactivity (PSR sort gate): high polyreactivity
